Target: phosphorylation levels of ERK1/2 in AsPC-1 (homozygous KRAS-G12D) cells (Homo sapiens, UniProt P01116, G12D)
Sequence (P01116 1-186 G12D): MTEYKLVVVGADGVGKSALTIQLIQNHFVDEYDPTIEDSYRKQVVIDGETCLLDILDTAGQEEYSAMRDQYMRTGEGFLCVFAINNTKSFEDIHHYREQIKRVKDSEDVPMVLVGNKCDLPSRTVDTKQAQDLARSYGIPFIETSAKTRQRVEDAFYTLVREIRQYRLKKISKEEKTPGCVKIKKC
Experiment: Cellular phospho-ERK assay in AsPC-1 cells (Alpha Screen), assay medium without fetal bovine serum;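 further: signal taken as phospho-ERK over total ERK per well, both detected in one multiplex bead assay, EC50 from four-parameter logistic fit of dose-response curves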
Conditions: phospho-ERK AlphaScreen, 18 h
*1 amine or outer side, *2 acyl side, *3 side chain or, on linkers, in order; H or OH if unused. Where a SMILES comes first, the peptide text is derived from it. [ ]: non-standard residue; d: D form. NMeAha = CN[C@@H](CCN=[N+]=[N-])C(=O)O; Phe(2-F) = N[C@@H](Cc1ccccc1F)C(=O)O; NMe3Pal = CN[C@@H](Cc1cccnc1)C(=O)O; X1 = O=C(C12CC(CN[*:1])(C1)C2)[*:2]; X9 = CCCC[C@H](O[*:1])C(=O)[*:2]; 3Pal = N[C@@H](Cc1cccnc1)C(=O)O; Nle = CCCC[C@H](N)C(=O)O
assay-readout: EC50

query: Give its EC50 value. Item: CCCC[C@@H]1NC(=O)[C@H](Cc2cncnc2)NC(=O)[C@H](CCCn2ccnc2)N(C)C(=O)[C@H](Cc2ccccc2)OC(=O)C23CC(CNC(=O)[C@H](Cc4ccccc4)N(C)C(=O)[C@H](CCCC)NC(=O)[C@H](Cc4ccccc4F)NC1=O)(C2)C3 (single isomer, unassigned) [compound 222]
result: > 50.8 µM

query: Entry to check: CCCC[C@@H]1NC(=O)[C@H](Cc2ccccc2F)NC(=O)[C@H](CCCC)OC(=O)[C@H](Cc2cccnc2)NC(=O)[C@H](CCN=[N+]=[N-])N(C)C(=O)[C@H](Cc2ccccc2)NC(=O)C23CC(CNC(=O)[C@H](Cc4cccnc4)N(C)C1=O)(C2)C3 [compound 250] (cyclo(F[NMeAha][3Pal][X9][Phe(2-F)][Nle][NMe3Pal][X1]))
result: > 50.8 µM
